Test system: SK-BR-3 human breast adenocarcinoma
Assay: SRB cell proliferation (cytotoxicity) assay, SK-BR-3
Details: read-out: LC50: Concentration for 50% cell death; SK-BR-3
metric-name: CC50 (µM)
Provide only the numeric value, understood in µM.

Query: Fill in CC50 for record AGCTGACACAGCAGGTTGGTGCCAACAAGAAAAGAAACCGTTACAGAAGACACTACAGAATAAGTGAAAAGCCGAGTCGAGCAATCTCGAAAT (nucleic acid, chemistry not given here) DNA: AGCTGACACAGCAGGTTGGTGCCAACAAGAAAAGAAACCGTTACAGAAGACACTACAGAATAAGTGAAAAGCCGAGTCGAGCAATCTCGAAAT
Response: 78.6

Query: Tell me CC50 reported for AGCTGACACAGCAGGTTGGTGCCCAAAAGAGCCAATCCACGACGACACCCCAAAAACCATATCACGAATACCCGAGTCGAGCAATCTCGAAAT (nucleic acid, chemistry not given here) DNA: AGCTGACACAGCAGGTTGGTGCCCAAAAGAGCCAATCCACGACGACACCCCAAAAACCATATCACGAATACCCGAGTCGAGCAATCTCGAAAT
Response: 80.7

Query: Give recorded CC50. AGCTGACACAGCAGGTTGGTGCGCCCAATACAGGCGCAGTATCTGTCCGTGGGCCGGGTAAAAGTTACGGACCGAGTCGAGCAATCTCGAAAT (nucleic acid, chemistry not given here) DNA: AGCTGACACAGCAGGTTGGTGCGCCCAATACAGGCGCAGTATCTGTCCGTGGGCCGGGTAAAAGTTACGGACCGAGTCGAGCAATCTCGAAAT
Response: 60.2

Query: Respond only with CC50 recorded for CTGACACAGCAGGTTGGTGCCAACTAACACCATAAGAATACCCCGCTCCAAATAAGCCCACACGTAAACCCGAGTCGAGCAATCTCGAAAT (nucleic acid, chemistry not given here, DNA aptamer that recognizes human galectin-1) DNA: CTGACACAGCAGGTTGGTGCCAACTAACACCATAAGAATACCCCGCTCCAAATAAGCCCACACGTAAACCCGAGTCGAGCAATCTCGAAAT
Response: 56.9
